Here the recorded phosphorylation enrichment is given for each entry.
Assay system: FGFR1 (UniProt P11362)
Sequence (P11362 whole entry, looked up): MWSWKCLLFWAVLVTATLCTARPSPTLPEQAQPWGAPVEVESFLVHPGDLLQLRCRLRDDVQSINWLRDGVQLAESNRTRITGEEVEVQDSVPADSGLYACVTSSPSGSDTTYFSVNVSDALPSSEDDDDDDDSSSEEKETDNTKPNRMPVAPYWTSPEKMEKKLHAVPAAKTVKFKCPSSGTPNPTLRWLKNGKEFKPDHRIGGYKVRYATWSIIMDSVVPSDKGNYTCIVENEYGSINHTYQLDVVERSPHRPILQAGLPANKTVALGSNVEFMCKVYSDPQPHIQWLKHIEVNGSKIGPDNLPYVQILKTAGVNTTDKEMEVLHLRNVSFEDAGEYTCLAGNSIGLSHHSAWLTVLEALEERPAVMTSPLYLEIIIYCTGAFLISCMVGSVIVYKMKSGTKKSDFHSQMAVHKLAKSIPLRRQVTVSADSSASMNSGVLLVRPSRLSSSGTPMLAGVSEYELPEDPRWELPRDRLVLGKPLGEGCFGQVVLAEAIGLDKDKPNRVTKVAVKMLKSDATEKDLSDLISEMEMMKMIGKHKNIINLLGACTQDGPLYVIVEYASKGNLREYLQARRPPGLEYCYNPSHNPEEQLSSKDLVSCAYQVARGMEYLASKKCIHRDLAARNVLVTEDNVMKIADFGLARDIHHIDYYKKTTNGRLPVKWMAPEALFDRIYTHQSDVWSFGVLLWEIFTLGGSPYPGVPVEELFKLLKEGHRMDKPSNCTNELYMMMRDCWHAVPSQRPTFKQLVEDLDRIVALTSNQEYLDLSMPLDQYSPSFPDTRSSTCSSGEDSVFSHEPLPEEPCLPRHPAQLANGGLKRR
Test: phosphorylation enrichment, bacterial display (enrichment ratio); higher = better substrate or ligand; peptides without Tyr show the background;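 note: 11-residue human phosphosite peptides and single-mutation variants displayed on the E. coli surface, counted by deep sequencing, each peptide's frequency after selection divided by its frequency in the unselected input library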;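 note: frequency after pTyr selection over input frequency; kinase dosed for 20-30% of maximal phosphorylation in three min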

Solved entries (count: 5):
Request: Sample ENELTYFCCKK [CD59_Y86_YF] — what was its phosphorylation enrichment?
Result: 0.867

Request: Look up phosphorylation enrichment for this sequence: ENPLDYGSAWA [AR_Y395]
Result: 0.491

Request: Quick one: phosphorylation enrichment for EALDFCGEVRT [PTEN_Y155_Y155C] ?
Result: 0.803

Request: So what does the record say about phosphorylation enrichment for AIIEEYLHLSD [EIF4G1_Y1253_N1257S] ?
Result: 0.592

Request: # input sequence: LGRTRYQDVTG [MIPEP_Y510_H512D] ; wanted: its phosphorylation enrichment
Result: 0.525

Others:
Request: phosphorylation enrichment lookup needed for IEPVIYVVQRR [ANOS1_Y217] , thanks.
Result: 0.368

Request: Requested field: phosphorylation enrichment. Item: TCRPPYFHRNC [HGD_Y333_F329C_YF]
Result: 0.255

Request: Item under review: GVRLYYRVMES [RB1_Y454] . Reported phosphorylation enrichment?
Result: 0.535

Request: What measured phosphorylation enrichment goes with ALKKPYSVLYK [RPF2_Y59_G60S] ?
Result: 0.385

Request: # lookup: phosphorylation enrichment of MHYSNYVSKGS [PDGFRA_Y849_D846Y]
Result: 0.421
